# Measurement notes: Selectivity index, ratio of IC50 for cytotoxicity against human BEAS-2B cells to IC50 for cytotoxicity against human A549 cells
# Format: toxicity, cell-based
# Experimental parameters: BEAS-2B cells and A549 cells, read-out: Ratio IC50
Parameter measured: selectivity ratio

// query Using the record for O=C(CCCCCC(=O)N(Cc1ccc(Br)s1)c1ccc(OCCN2CCOCC2)cc1)NO , report its selectivity ratio.
// result > 16.2

###

# Measurement notes: Selectivity index, ratio of CC50 for cytotoxicity against HEK293 cells to IC50 for cytotoxicity against human A549 cells
# Type: toxicity, cell-based
# Experimental parameters: HEK293 cells and A549 cells, read-out: Ratio CC50/IC50
Parameter measured: selectivity ratio

// query Using the record for O=C(CCCN1CCN(C(=O)Nc2cccc3ncccc23)CC1)NO , report its selectivity ratio.
// result > 8.7

###

# Measurement notes: Oral bioavailability in BALB/c mouse at 200 mg/kg
# Type: ADME, organism-based
# Experimental parameters: in vivo
Parameter measured: bioavailability (%)
Express it in %; write the number only.

// query Using the record for CC(C)n1cnc2c(-c3cccc(OCCCCC(=O)NO)c3)nc(N3CCOCC3)nc21 , report its bioavailability.
// result 62

###

# Measurement notes: Selectivity index, ratio of IC50 for cytotoxicity against human MCF-10F cells to IC50 for cytotoxicity against human MDA-MB-231 cells
# Format: toxicity, cell-based
# Experimental parameters: MCF-10F cells and MDA-MB-231 cells, read-out: Ratio IC50
Parameter measured: selectivity ratio

// query Using the record for O=C(CCCCCC(=O)N(Cc1ccc(Br)s1)c1ccc(OCCN2CCOCC2)cc1)NO , report its selectivity ratio.
// result > 16.2

###

# Measurement notes: Cytotoxicity against human BEAS-2B cells
# Type: toxicity, cell-based
pIC50: −log10 of the molar value.
Parameter measured: pIC50

// query Using the record for O=C(CCCCCC(=O)N(Cc1ccc(Br)s1)c1ccc(OCCN2CCOCC2)cc1)NO , report its pIC50.
// result < 4.00

###

# Measurement notes: Cytotoxicity against chicken heart fibroblast cells
# Assay type: toxicity, cell-based, Gallus gallus
Parameter measured: IC50

>>> df
                                 smiles_str  parameter_measured  recorded_value
0  CCn1cnc(-c2ccc(OC)cc2)c1-c1ccc(/C=C/C(=O)NO)cc1                IC50        > 150 µM
1  COc1ccc(-c2ncn(C)c2-c2ccc(/C=C/C(=O)NO)cc2)cc1                IC50        > 150 µM

Now look at this one.
// query Using the record for Cn1cnc(-c2ccc(F)cc2)c1-c1ccc(/C=C/C(=O)NO)cc1 , report its IC50.
// result > 150 µM

###

# Measurement notes: Toxicity in BALB/c mouse assessed as maximum tolerated dose
# Experimental parameters: in vivo
Parameter measured: MTD (mg/kg)
Express it in mg/kg; write the number only.

// query Using the record for CC(C)n1cnc2c(-c3cccc(OCCCCC(=O)NO)c3)nc(N3CCOCC3)nc21 , report its MTD.
// result 200

###

# System: K562
# Measurement notes: Cytotoxicity against human K562 cells assessed as inhibition of cell growth by SRB assay
# Type: functional, cell-based
Parameter measured: pIC50
In textbook form, pIC50 equals minus log to base ten of the concentration in mol/L.

// query Using the record for CC(C)n1cnc2c(-c3cccc(OCCCCC(=O)NO)c3)nc(N3CCOCC3)nc21 , report its pIC50.
// result 6.80
